The values you see were collected from patent US20060276464A1.

target: SFRP-1 (Homo sapiens, UniProt Q8N474); experiment: Cell-based assay for in vitro measurement of SFRP-1/SARP2 antagonist activity (U2OS cells co-transfected with 16x TCF-tk-Luciferase reporter, Wnt and hSFRP-1); conditions: U2OS, read-out: Fold Induction with SFRP-1, U2OS cells, single dose 10 μM, luciferase reporter, fold induction over SFRP-1 control;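 note: U2OS cells co-transfected with a TCF-tk luciferase reporter, a Wnt vector, hSFRP-1 or empty vector and CMV-βgal, luciferase luminescence read in cell lysates alongside βgal activity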
Sequence (Q8N474 32-314): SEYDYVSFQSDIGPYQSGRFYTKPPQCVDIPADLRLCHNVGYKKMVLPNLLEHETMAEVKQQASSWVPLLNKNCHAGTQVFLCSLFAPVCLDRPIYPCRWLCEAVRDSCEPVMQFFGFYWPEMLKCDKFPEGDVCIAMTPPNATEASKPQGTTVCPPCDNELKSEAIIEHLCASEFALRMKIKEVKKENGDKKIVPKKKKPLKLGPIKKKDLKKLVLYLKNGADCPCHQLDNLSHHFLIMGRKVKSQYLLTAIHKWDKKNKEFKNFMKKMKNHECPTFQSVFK
quantityMeasured: fold induction at 10 µM

Examples from the recorded data:
>>> datavalue("O=S(=O)(N[C@H]1CCNC1)c1cc(S(=O)(=O)c2ccccc2)ccc1C(F)(F)F [Example 796]")
4.3
>>> datavalue("O=C(NCCNS(=O)(=O)c1cc(S(=O)(=O)c2ccccc2)ccc1C(F)(F)F)c1ccc(Cl)cc1 [Example 778]")
1.2
>>> datavalue("CCCCOC(=O)N(C)CCNS(=O)(=O)c1cc(S(=O)(=O)c2ccccc2)ccc1C(F)(F)F [Example 865]")
2.9
>>> datavalue("CC(C)c1ccc(S(=O)(=O)c2ccccc2)cc1S(=O)(=O)NC1CCN(C(=O)c2cccc(F)c2)CC1 [Example 804]")
3
>>> datavalue("COC(=O)c1ccc(NC(=S)N2CCC(NS(=O)(=O)c3cc(S(=O)(=O)c4ccc(F)cc4)ccc3C(C)C)CC2)cc1 [Example 696]")
2.2
>>> datavalue("CC(C)(C)OC(=O)NCCNS(=O)(=O)c1cc(S(=O)(=O)c2ccccc2)ccc1C(F)(F)F [Example 742]")
2.4

(I) CC(=O)Nc1ccc(C(=O)N2CCC(NS(=O)(=O)c3cc(S(=O)(=O)c4ccccc4)ccc3C(F)(F)F)CC2)cc1 [Example 719]
(II) O=S(=O)(NC1Cc2ccccc2C1O)c1cc(S(=O)(=O)c2ccccc2)ccc1C(F)(F)F (centres unmarked) [Example 900]
Q: Which of the two items, I and II , has the greater recorded fold induction at 10 µM? To answer, give the label that identifies your chosen option.
Result: II

(1) N#Cc1ccc(CCNS(=O)(=O)c2cc(S(=O)(=O)c3ccccc3)ccc2C(F)(F)F)cc1 [Example 966]
(2) CN(CCNS(=O)(=O)c1cc(S(=O)(=O)c2ccccc2)ccc1C(F)(F)F)C(=O)c1cccnc1 [Example 849]
Q: Which of the two items, 1 and 2 , has the greater recorded fold induction at 10 µM? To answer, give the label that identifies your chosen option.
Result: 2
(2: 3.9, 1: 1.5)

(A) O=C(O)c1cccc(N2CCC(CCNS(=O)(=O)c3cc(S(=O)(=O)c4ccccc4)ccc3C(F)(F)F)CC2)c1 [Example 957]
(B) Cc1ccc(S(=O)(=O)c2ccc(F)cc2)cc1S(=O)(=O)NCC(O)c1ccccn1 (centres unmarked) [Example 756]
(C) CN(CCCNS(=O)(=O)c1cc(S(=O)(=O)c2ccccc2)ccc1C(F)(F)F)C(=O)NC1CCNCC1 [Example 971]
Q: List the 3 entries from lowest fold induction at 10 µM to highest fold induction at 10 µM value. Answer by writing out the labels in the requested order.
Result: B, C, A

(1) CC(C)c1ccc(S(=O)(=O)c2ccccc2)cc1S(=O)(=O)NC1CCN(C(=O)c2cccc3ccccc23)CC1 [Example 808]
(2) CC(C)(CO)NS(=O)(=O)c1cc(S(=O)(=O)c2ccccc2)ccc1Cl [Example 655]
Q: Compare reported fold induction at 10 µM values for 1 and 2 . Which is lower? To answer, give the label that identifies your chosen option.
Result: 2
(2: 1.1, 1: 3.7)

(1) COc1ccccc1C(=O)N1CCC(NS(=O)(=O)c2cc(S(=O)(=O)c3ccccc3)ccc2C(F)(F)F)CC1 [Example 703]
(2) CC(C)c1ccc(S(=O)(=O)c2ccccc2)cc1S(=O)(=O)NC1CCN(C(=O)c2ccc3ccccc3c2)CC1 [Example 809]
Q: Which of the two items, 1 and 2 , has the greater recorded fold induction at 10 µM? To answer, give the label that identifies your chosen option.
Result: 1
(1: 4.8, 2: 2.8)

(I) O=C(c1ccccc1)c1cccc(C(=O)N2CCC(NS(=O)(=O)c3cc(S(=O)(=O)c4ccccc4)ccc3C(F)(F)F)CC2)c1 [Example 801]
(II) COC(=O)c1ccc(CNS(=O)(=O)c2cc(S(=O)(=O)c3ccccc3)ccc2C(C)C)cc1 [Example 951]
(III) O=S(=O)(NCC(O)c1ccccc1)c1cc(S(=O)(=O)c2ccccc2)ccc1C(F)(F)F (centres unmarked) [Example 682]
Q: List the 3 entries from lowest fold induction at 10 µM to highest fold induction at 10 µM value. Answer by writing out the labels in the requested order.
Result: III, II, I

(I) O=C(c1ccc(OC(F)(F)F)cc1)N1CCC(NS(=O)(=O)c2cc(S(=O)(=O)c3ccccc3)ccc2C(F)(F)F)CC1 [Example 709]
(II) CCCc1ccc(S(=O)(=O)c2ccc(F)cc2)cc1S(=O)(=O)NCCc1cccnc1 [Example 874]
(III) O=C(NCCNS(=O)(=O)c1cc(S(=O)(=O)c2ccccc2)ccc1C(F)(F)F)c1ccc(F)cc1 [Example 777]
Q: Put the entries in order of fold induction at 10 µM, starting with the largest number. Answer by writing out the labels in the requested order.
Result: I, II, III
(I: 4.5, II: 3.1, III: 1.1)

(I) Nc1ccc(CCNS(=O)(=O)c2cc(S(=O)(=O)c3ccccc3)ccc2C(F)(F)F)cc1 [Example 928]
(II) CC(C)c1ccc(S(=O)(=O)c2ccccc2)cc1S(=O)(=O)NC1CCNCC1 [Example 924]
Q: Compare reported fold induction at 10 µM values for I and II . Which is lower? To answer, give the label that identifies your chosen option.
Result: II
(II: 2.5, I: 3.9)
